Give IC50 for every item shown.
Target: 17-beta-hydroxysteroid dehydrogenase type 3 (Homo sapiens, UniProt P37058)
Sequence (P37058 whole entry): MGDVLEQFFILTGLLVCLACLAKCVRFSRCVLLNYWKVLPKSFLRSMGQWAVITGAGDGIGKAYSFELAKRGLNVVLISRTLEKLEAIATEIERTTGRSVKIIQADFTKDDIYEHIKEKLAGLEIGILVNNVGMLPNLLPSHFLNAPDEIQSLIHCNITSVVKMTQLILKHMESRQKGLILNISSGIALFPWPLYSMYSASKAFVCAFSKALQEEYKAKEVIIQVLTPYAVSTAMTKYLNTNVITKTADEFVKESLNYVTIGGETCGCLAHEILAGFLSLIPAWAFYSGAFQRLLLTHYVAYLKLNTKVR
Test: Inhibition of 17beta-HSD3
Give bare numbers, in µM.

CC(=O)N1Cc2ccccc2/C=C\c2cc(Cl)ccc21; 0.24
NC(=O)N1Cc2ccc(Br)cc2CCc2ccccc21; 0.28
CC(=O)N1Cc2ccccc2CSc2cc(O)ccc21; 4.86

Here are 5 molecules. What values of IC50 were reported for them?
1. CC(=O)N1Cc2cc(-c3cccc(C#N)c3)ccc2CCc2cc(Cl)ccc21
2. CC(=O)N1Cc2ccc(NCc3ccccc3)cc2CCc2ccccc21
3. CC(=O)N1Cc2ccccc2CSc2ccccc21
4. CC(=O)N1Cc2cc(-c3ccccc3CO)ccc2CCc2cc(Cl)ccc21
5. O=C(C1CC1)N1Cc2ccc(Br)cc2CCc2ccccc21

Resp:
1: 0.003; 2: 0.008; 3: 0.4; 4: 0.0009; 5: 0.32

Here are 3 molecules. What values of IC50 were reported for them?
1. CC(=O)N1Cc2ccccc2COc2ccccc21
2. COC(=O)c1cccc(-c2ccc3c(c2)CN(C(C)=O)c2ccc(Cl)cc2CC3)c1
3. CC(=O)N1Cc2ccc(N)cc2CCc2ccccc21

Resp:
[2.97, 0.0014, 0.49]

---

Give pIC50 for every item shown.
Target: UniProtKB P37058
Assay: Inhibition of 17beta-HSD3
One number for each entry, as −log10 of the molar value.

A selection of reference data follows.
CC(=O)N1Cc2ccccc2CSc2cc(F)ccc21; 7.05
COc1ccc(-c2ccc3c(c2)CN(C(C)=O)c2ccc(Cl)cc2CC3)cc1; 8.52

Here are 5 molecules. What values of pIC50 were reported for them?
1. CC(=O)N1Cc2ccccc2CSc2cc(Br)ccc21
2. CC(=O)N1Cc2cc(-c3cccc(CN)c3)ccc2CCc2cc(Cl)ccc21
3. CC(=O)N1Cc2cc(-c3ccccc3)ccc2CCc2cc(Cl)ccc21
4. CNC(=O)c1ccccc1-c1ccc2c(c1)CN(C(C)=O)c1ccc(Cl)cc1CC2
5. CC(=O)N1Cc2ccccc2CNc2ccccc21

Resp:
1. 6.60
2. 6.54
3. 8.40
4. 7.60
5. 5.32

---

Target: 17-beta-hydroxysteroid dehydrogenase type 3 (Homo sapiens)
Assay: Inhibition of 17beta-HSD3
Give pIC50 for every item shown.
Answers are plain numbers, as −log10 of the molar value.

CC(=O)N1Cc2ccc(NC(=O)c3ccccc3)cc2CCc2ccccc21; 6.80
CC(=O)N1Cc2cc(-c3ccc(C#N)cc3)ccc2CCc2cc(Cl)ccc21; 8.52
CC(=O)N1Cc2ccccc2CSc2cc(Cl)c(Cl)cc21; 8.00
CC(=O)N1Cc2ccccc2CSc2ccc(Cl)cc21; 7.52
CC(=O)N1Cc2ccccc2CSc2ccc(C(F)(F)F)cc21; 5.55
CC(=O)N1Cc2ccccc2CCc2ccccc21; 7.05

Here are 5 molecules. What values of pIC50 were reported for them?
1. CC(=O)N1Cc2cc(Br)ccc2CCc2ccccc21
2. CC(=O)N1Cc2ccccc2CCc2cc(Cl)ccc21
3. CC(=O)N1Cc2cc(-c3ccccc3CN)ccc2CCc2cc(Cl)ccc21
4. CC(=O)N1Cc2ccccc2CCc2ccc(Cl)cc21
5. COc1ccccc1-c1ccc2c(c1)CN(C(C)=O)c1ccc(Cl)cc1CC2

Resp:
[8.05, 7.15, 6.62, 7.30, 8.70]

---

Target: 17-beta-hydroxysteroid dehydrogenase type 3 (Homo sapiens)
Assay: Inhibition of 17beta-HSD3
Give IC50 for every item shown.
Answers are plain numbers, in nM.

A selection of reference data follows.
CC(=O)N1Cc2ccccc2CSc2cccc(Cl)c21; 11500
CC(=O)N1Cc2ccccc2CSc2cc(C)ccc21; 1000

Here are 2 molecules. What values of IC50 were reported for them?
1. CC(=O)N1Cc2cc(-c3ccccc3NS(C)(=O)=O)ccc2CCc2cc(Cl)ccc21
2. COc1cccc(-c2ccc3c(c2)CN(C(C)=O)c2ccc(Cl)cc2CC3)c1

Resp:
1: 2; 2: 8

Here are 6 molecules. What values of IC50 were reported for them?
1. CC(=O)N1Cc2ccccc2CSc2cc(Cl)ccc21
2. CC(=O)N1Cc2ccc(Br)cc2CCc2ccccc21
3. CC(=O)N1Cc2ccccc2CSc2c1ccc(Cl)c2Cl
4. CC(=O)N1Cc2cc(-c3ccccc3C#N)ccc2CCc2cc(Cl)ccc21
5. COC(=O)c1ccccc1-c1ccc2c(c1)CN(C(C)=O)c1ccc(Br)cc1CC2
6. CC(=O)N1Cc2cc(-c3cccc(NS(C)(=O)=O)c3)ccc2CCc2cc(Cl)ccc21

Resp:
1. 100
2. 7
3. 760
4. 5
5. 0.7
6. 140

Req: What does the data say about its IC50? Entry: `COc1ccc2c(c1)SCc1ccccc1CN2C(C)=O`
Resp: 2060
